These entries and their values trace back to ChEMBL document CHEMBL3507680.

Assay: Human HepG2 cell viability assay in 384 well format
Assay type: toxicity, cell-based
Set-up: dose 125 nL, time 70.5 hour; concentration not given beside the values
Conditions: HepG2 cells, read-out: Inhibition
Listed compounds paired with reported cytotoxicity at 70.5 h
The reply should be a number in %, with the unit left off.

Before answering, review these 4 worked examples.
>>> value("Cc1cncnc1C1CCN(C(=O)C2(C)CCCCN2C)CC1 (centres undefined)")
-4.92
>>> value("Cc1cc(N2CCC(Cc3ncccn3)C2)ncn1 (centres undefined)")
-6.02
>>> value("Cc1nc(-c2cccc(N3CCC(N[C@@H]4CCOC4)CC3)c2)cs1")
0.567
>>> value("NC(=O)Nc1cccc(Oc2ccccn2)c1")
-4.42

Challenge: Note cytotoxicity at 70.5 h for the compound shown: CN1CCCCC1CC(=O)Nc1ccc2ncn(C)c2c1 (centres undefined)
Response given: 13.5

Challenge: Note cytotoxicity at 70.5 h for the compound shown: O=C(Cc1ccccn1)N1CCN(CC2CC2)c2ncccc2C1
Response given: -4.27

Challenge: Note cytotoxicity at 70.5 h for the compound shown: CS(=O)(=O)N1CC[C@H]2O[C@H](C(=O)NCc3cccnc3)CC[C@H]21
Response given: 0.629

Challenge: Note cytotoxicity at 70.5 h for the compound shown: Cc1nc2cc(=O)[nH]n2c(C)c1CC(=O)NCCCc1ccccc1
Response given: -4.06

Challenge: Note cytotoxicity at 70.5 h for the compound shown: O=C(NCc1cccnc1)[C@H]1CN2CCC1C[C@@H]2Cn1cc(CO)nn1 (some centres undefined)
Response given: -6.61

* * *

Test: Human HepG2 cell viability assay in 384 well format
Type: toxicity, cell-based
Set-up: dose 125 nL, time 70.5 hour; concentration not given beside the values
Settings: HepG2 cells, read-out: Inhibition
ENDPOINT NAME: cytotoxicity at 70.5 h (%)
The reply should be a number in %, with the unit left off.

>>> value("CN1CCN(C2CCN(Cc3ccc(Cl)s3)CC2)C1=O")
-0.237
>>> value("Cc1ncsc1COC(=O)c1cccc2c1OCCO2")
-5.64

Challenge: Note cytotoxicity at 70.5 h for the molecule shown: Cc1cc(C(=O)N2CC[C@H]3[C@H]2CCN3S(C)(=O)=O)c(C)o1
Response given: 0.739

Challenge: Note cytotoxicity at 70.5 h for the molecule shown: O=C(c1ccnnc1)N1CCC2(CC1)CN(c1ccccn1)CCO2
Response given: -10.9

Challenge: Note cytotoxicity at 70.5 h for the molecule shown: Cc1csc(Nc2cc(C3CCCCN3C)nc(C)n2)n1 (stereo unspecified)
Response given: 0.668

Challenge: Note cytotoxicity at 70.5 h for the molecule shown: Cc1nn(C)cc1CN(C)Cc1cc2c(cc1OC(F)F)OCO2
Response given: -7.7

* * *

Assay: Human HepG2 cell viability assay in 384 well format
Type: toxicity, cell-based
Set-up: dose 125 nL, time 70.5 hour; concentration not given beside the values
Details: HepG2 cells, read-out: Inhibition
ENDPOINT NAME: cytotoxicity at 70.5 h (%)
The reply should be a number in %, with the unit left off.

>>> value("Cn1nnc2c1CCN(Cc1ccoc1)C2COCc1ccccc1 (stereo unspecified)")
1.66
>>> value("CCS(=O)(=O)N1CCC2(CCCN(c3ncc(F)cn3)C2)C1 (stereo unspecified)")
-6.13
>>> value("Cc1cc(C)n(CC(=O)N2CCC(NS(C)(=O)=O)CC2)n1")
-11.4

Challenge: Note cytotoxicity at 70.5 h for the compound shown: Cc1n[nH]c(C2CN(C(=O)c3ccnc(C4CC4)n3)CCO2)n1 (stereo unspecified)
Response given: -10.4

Challenge: Note cytotoxicity at 70.5 h for the compound shown: CN1CC(=O)N(c2ccsc2)CC12CCN(C(=O)c1ccccc1)C2 (stereo unspecified)
Response given: -12.7

Challenge: Note cytotoxicity at 70.5 h for the compound shown: COc1ccc(C(C)N2CCC(NS(C)(=O)=O)CC2)cc1Cl (stereo unspecified)
Response given: 10.5

Challenge: Note cytotoxicity at 70.5 h for the compound shown: CCN(CC)S(=O)(=O)NC1CCCc2nc(-c3ccccc3)ncc21 (stereo unspecified)
Response given: -7.72

Challenge: Note cytotoxicity at 70.5 h for the compound shown: CS(=O)(=O)c1cccc(C(=O)NCCCN2CCc3ccccc3C2)c1
Response given: 19.1

Challenge: Note cytotoxicity at 70.5 h for the compound shown: CNC(=O)[C@H]1CCS(=O)(=O)[C@@H]2CN(Cc3ccc(OC)cc3)C[C@H]12
Response given: -4.04

Challenge: Note cytotoxicity at 70.5 h for the compound shown: CSC1=Nc2c(cnn2-c2cccc(Cl)c2)C2=NCCCN12
Response given: -12

Challenge: Note cytotoxicity at 70.5 h for the compound shown: Cc1ccccc1-c1cc(C(=O)NCCN2CCCS2(=O)=O)[nH]n1
Response given: -15.5
